All values here come from ChEMBL document CHEMBL1157539.

tested on: Plasmodium falciparum; experiment: GSK_TCMDC: Inhibition of Plasmodium falciparum 3D7 in whole red blood cells, using parasite LDH activity as an index of growth. Test compounds present at 2uM; assay type: functional
ENDPOINT LABEL: Inhibition (%)
// note: answer is a bare numeric in %

Solved cases (5 shown):
# CHEMICAL STRUCTURE, DISPLAY UNIT, Inhibition
rows = [
    ("Oc1ccc(-c2nc3c4cc(I)ccc4c4ccc(I)cc4c3[nH]2)cc1", "%", 98),
    ("Cc1ccc(Nc2nc(N)c3ccccc3n2)cc1.Cl", "%", 94),
    ("COc1ccc(CN2CCC(NCc3cccc(-n4ccnc4)c3)CC2)cc1.O=C(O)C(F)(F)F", "%", 100),
    ("Cc1[nH]c(C)c(-c2ccc(-c3ccc4c(c3)OCO4)nc2)c(=O)c1Br", "%", 96),
    ("COc1ccc(CCNCCCCCCNCCCc2ccc(Cl)cc2)cc1OC.Cl", "%", 96),
]

stdin: Give the reported Inhibition for CCN1CCN(c2ccc(Nc3ccnc4ccc(Br)cc34)cc2)CC1 (system: Plasmodium falciparum).
stdout: 98

stdin: Give the reported Inhibition for NS(=O)(=O)c1cncc(-c2ccc3nccc(-c4cn[nH]c4)c3n2)c1 (system: Plasmodium falciparum).
stdout: 99

stdin: Give the reported Inhibition for Cc1ccc(NS(=O)(=O)c2ccc(-c3ccccc3)cc2)c(Cn2cnc(N3CCCNCC3)cc2=O)c1.O=C(O)C(F)(F)F (system: Plasmodium falciparum).
stdout: 87

stdin: Give the reported Inhibition for Cl.O=C(O[C@H]1CN[C@H](C#Cc2cc3c(Nc4ccc(OCc5cccc(F)c5)c(Cl)c4)ncnc3s2)C1)N1CCCC1 (system: Plasmodium falciparum).
stdout: 99

###

test system: Plasmodium falciparum; assay: GSK_TCMDC: Inhibition of Plasmodium falciparum Dd2 in whole red blood cells, using parasite LDH activity as an index of growth. Test compounds present at 2uM; assay type: functional
Tick condition met if Inhibition is 50% or greater. Tick condition not met if Inhibition is less than 50%.

Worked examples follow.
# COMPOUND, QUALITATIVE LABEL
records = [
    ("CN(C)c1cccc(-c2cnc3ccc(NCc4cccc(Cl)c4)nn23)c1", "condition met"),
    ("CC[C@H](C)CNC(=O)c1cccc(-c2cccc(CNCC3CNCCCO3)c2)n1.O=C(O)C(F)(F)F (some centres undefined)", "condition met"),
    ("CC(C)N1CCN(C(CN2CCN(CCCOc3ccc4ccccc4c3)CC2)c2ccc(F)cc2)CC1.Cl (centres undefined)", "condition met"),
    ("CC(C)NCc1cccc(-c2ccc(-c3nc4cc(C(F)(F)F)ccc4[nH]3)cc2)c1.O=C(O)C(F)(F)F", "condition met"),
    ("O=C(Nc1ccc(C(F)(F)F)cc1)c1ccc(S(=O)(=O)NC2CCN(CC3CCCCC3)C2)cc1.O=C(O)C(F)(F)F (centres undefined)", "condition not met"),
]

stdin: Decide: Inhibition of CN(C)c1ccc(-c2csc(C(=O)NC3CCCCN(Cc4ccc(C(C)(C)C)cc4)C3)c2)cc1.O=C(O)C(F)(F)F (centres undefined) >= 50%?
stdout: condition met

stdin: Decide: Inhibition of Cc1ccc(NC(=O)c2ccc3ncccc3c2)cc1OC1CCN(Cc2ccco2)C1.O=C(O)C(F)(F)F (centres undefined) >= 50%?
stdout: condition not met

stdin: Decide: Inhibition of Cl.Cn1c2ccccc2c2c3ccccc3c(CNC(CO)(CO)CO)cc21 >= 50%?
stdout: condition met

stdin: Decide: Inhibition of COc1ccc(-c2ccc(NC(=O)c3cccc(C#N)c3)cc2)cc1CN1CCNCC1.O=C(O)C(F)(F)F >= 50%?
stdout: condition not met
